This collection of values is drawn from patent US20090312253A1.

In this section we review reported reduction of binding to LRP6 against wild-type Dkk1 values for a set of binders.
# EXPERIMENTAL SYSTEM: LRP6 expressed on HEK cells transfected with the LRP6 plasmid
# ASSAY METHOD TEXT: Dkk1-AP conditioned medium on LRP6-transfected HEK cells, AP activity in cell lysate, wild type = 100%

mouse Dkk1-AP mutant R242E (ligand, UniProt O54908 32-272, looked up, not shown: large carriers) TLNSVLINSNAIKNLPPPLGGAGGQPGSAVSVAPGVLYEGGNKYQTLDNYQPYPCAEDEECGSDEYCSSPSRGAAGVGGVQICLACRKRRKRCMRHAMCCPGNYCKNGICMPSDHSHFPRGEIEESIIENLGNDHNAAAGDGYPRRTTLTSKIYHTKGQEGSVCLRSSDCAAGLCCARHFWSKICKPVLKEGQVCTKHKRKGSHGLEIFQECYCGEGLACRIQKDHHQASNSSRLHTCQRH :: > 50%
mouse Dkk1-AP mutant K217E (ligand, UniProt O54908 32-272, looked up, not shown: large carriers) TLNSVLINSNAIKNLPPPLGGAGGQPGSAVSVAPGVLYEGGNKYQTLDNYQPYPCAEDEECGSDEYCSSPSRGAAGVGGVQICLACRKRRKRCMRHAMCCPGNYCKNGICMPSDHSHFPRGEIEESIIENLGNDHNAAAGDGYPRRTTLTSKIYHTKGQEGSVCLRSSDCAAGLCCARHFWSKICEPVLKEGQVCTKHKRKGSHGLEIFQRCYCGEGLACRIQKDHHQASNSSRLHTCQRH :: > 50%

What value of measured reduction of binding to LRP6 against wild-type Dkk1 is listed for mouse Dkk1-AP mutant H267E (ligand, UniProt O54908 32-272, looked up, not shown: large carriers) TLNSVLINSNAIKNLPPPLGGAGGQPGSAVSVAPGVLYEGGNKYQTLDNYQPYPCAEDEECGSDEYCSSPSRGAAGVGGVQICLACRKRRKRCMRHAMCCPGNYCKNGICMPSDHSHFPRGEIEESIIENLGNDHNAAAGDGYPRRTTLTSKIYHTKGQEGSVCLRSSDCAAGLCCARHFWSKICKPVLKEGQVCTKHKRKGSHGLEIFQRCYCGEGLACRIQKDHHQASNSSRLETCQRH ? 43%
